TESTED ON: Somatostatin receptor type 3 (Homo sapiens)
Sequence (P32745 whole entry): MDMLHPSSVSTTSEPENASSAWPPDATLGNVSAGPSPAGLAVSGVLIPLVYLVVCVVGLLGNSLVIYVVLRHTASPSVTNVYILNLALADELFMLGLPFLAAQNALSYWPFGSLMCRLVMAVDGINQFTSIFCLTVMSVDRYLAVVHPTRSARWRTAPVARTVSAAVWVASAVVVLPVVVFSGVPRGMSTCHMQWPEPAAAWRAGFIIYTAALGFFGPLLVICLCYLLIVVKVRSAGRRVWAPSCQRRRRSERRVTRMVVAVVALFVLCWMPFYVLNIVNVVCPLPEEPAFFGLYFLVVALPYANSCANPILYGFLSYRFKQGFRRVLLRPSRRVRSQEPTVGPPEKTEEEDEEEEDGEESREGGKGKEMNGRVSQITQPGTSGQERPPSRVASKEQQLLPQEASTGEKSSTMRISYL
PROTOCOL DETAILS: Displacement of [125I]-[Leu8, DTrp22, Tyr25]SRIF28 from human sst3 receptor expressed in chinese hamster CCL39 cells by autoradiography
pIC50: −log10 of the molar value.
VALUE KIND: pIC50

Hi! What's the reported pIC50 for `C[C@@H](O)[C@@H]1NC(=O)[C@H](CCCCN)NC(=O)[C@@H](Cc2c[nH]c3ccccc23)NC(=O)[C@H](Cc2ccc(O)cc2)NC(=O)[C@H](NC(=O)[C@@H](N)Cc2ccc(Cl)cc2)CCSSCC[C@@H](C(=O)N[C@@H](Cc2ccc3ccccc3c2)C(N)=O)NC1=O` on Somatostatin receptor type 3 (Homo sapiens)?
6.44

(A) C[C@@H](O)[C@H](NC(=O)[C@@H]1CCSSCC[C@H](NC(=O)[C@H](N)Cc2ccccc2)C(=O)N[C@@H](Cc2ccccc2)C(=O)N[C@H](Cc2c[nH]c3ccccc23)C(=O)N[C@@H](CCCCN)C(=O)N[C@@H]([C@@H](C)O)C(=O)N1)C(N)=O
(B) C[C@@H](O)[C@H](NC(=O)[C@@H]1CSSC[C@H](NC(=O)[C@H](N)Cc2ccccc2)C(=O)N[C@@H](Cc2ccccc2)C(=O)N[C@H](Cc2c[nH]c3ccccc23)C(=O)N[C@@H](CCCCN)C(=O)N[C@@H]([C@@H](C)O)C(=O)N1)C(N)=O
# compare pIC50 for A vs B ; return the one with the smaller value Write down the label of the entry you select.
A

---

TESTED ON: Somatostatin receptor type 2 (Homo sapiens, UniProt P30874)
Sequence (P30874 whole entry): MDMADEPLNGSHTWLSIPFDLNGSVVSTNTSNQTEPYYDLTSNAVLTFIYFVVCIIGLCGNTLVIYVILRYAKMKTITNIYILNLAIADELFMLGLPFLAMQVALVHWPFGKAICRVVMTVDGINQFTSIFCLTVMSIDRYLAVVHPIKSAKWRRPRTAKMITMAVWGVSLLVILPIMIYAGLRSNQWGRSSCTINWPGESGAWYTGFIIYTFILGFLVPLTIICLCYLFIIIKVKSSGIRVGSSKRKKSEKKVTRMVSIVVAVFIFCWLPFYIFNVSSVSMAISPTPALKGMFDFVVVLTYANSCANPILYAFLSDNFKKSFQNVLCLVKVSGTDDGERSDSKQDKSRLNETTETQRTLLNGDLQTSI
PROTOCOL DETAILS: Displacement of [125I]-[Leu8, DTrp22, Tyr25]SRIF28 from human sst2 receptor expressed in chinese hamster CCL39 cells by autoradiography
VALUE KIND: IC50 (nM)

Give the measured IC50 of `C[C@@H](O)[C@@H]1NC(=O)[C@H](CCCCN)NC(=O)[C@@H](Cc2c[nH]c3ccccc23)NC(=O)[C@H](Cc2ccc(O)cc2)NC(=O)[C@H](NC(=O)[C@@H](N)Cc2ccc(Cl)cc2)CCSSCC[C@@H](C(=O)N[C@@H](Cc2ccc3ccccc3c2)C(N)=O)NC1=O` .
267

(A) C[C@@H](O)[C@H](NC(=O)[C@@H]1CSSC[C@H](NC(=O)[C@H](N)Cc2ccccc2)C(=O)N[C@@H](Cc2ccccc2)C(=O)N[C@H](Cc2c[nH]c3ccccc23)C(=O)N[C@@H](CCCCN)C(=O)N[C@@H]([C@@H](C)O)C(=O)N1)C(N)=O
(B) C[C@@H](O)[C@H](NC(=O)[C@@H]1NC(=O)[C@H]([C@@H](C)O)NC(=O)[C@H](CCCCN)NC(=O)[C@@H](Cc2c[nH]c3ccccc23)NC(=O)[C@H](Cc2ccccc2)NC(=O)[C@H](NC(=O)[C@H](N)Cc2ccccc2)SS1)C(N)=O
(C) C[C@@H](O)[C@H](NC(=O)[C@@H]1CCSSCC[C@H](NC(=O)[C@H](N)Cc2ccccc2)C(=O)N[C@@H](Cc2ccccc2)C(=O)N[C@H](Cc2c[nH]c3ccccc23)C(=O)N[C@@H](CCCCN)C(=O)N[C@@H]([C@@H](C)O)C(=O)N1)C(N)=O
List from greatest to least IC50. To answer, write out the labels according to the requested order.
B, C, A
(B: 337 nM, C: 4.9 nM, A: 1.9 nM)

# credit: ChEMBL document CHEMBL1150261
